Measured on: CD45 (Homo sapiens, UniProt P08575)
Sequence (P08575 26-1306): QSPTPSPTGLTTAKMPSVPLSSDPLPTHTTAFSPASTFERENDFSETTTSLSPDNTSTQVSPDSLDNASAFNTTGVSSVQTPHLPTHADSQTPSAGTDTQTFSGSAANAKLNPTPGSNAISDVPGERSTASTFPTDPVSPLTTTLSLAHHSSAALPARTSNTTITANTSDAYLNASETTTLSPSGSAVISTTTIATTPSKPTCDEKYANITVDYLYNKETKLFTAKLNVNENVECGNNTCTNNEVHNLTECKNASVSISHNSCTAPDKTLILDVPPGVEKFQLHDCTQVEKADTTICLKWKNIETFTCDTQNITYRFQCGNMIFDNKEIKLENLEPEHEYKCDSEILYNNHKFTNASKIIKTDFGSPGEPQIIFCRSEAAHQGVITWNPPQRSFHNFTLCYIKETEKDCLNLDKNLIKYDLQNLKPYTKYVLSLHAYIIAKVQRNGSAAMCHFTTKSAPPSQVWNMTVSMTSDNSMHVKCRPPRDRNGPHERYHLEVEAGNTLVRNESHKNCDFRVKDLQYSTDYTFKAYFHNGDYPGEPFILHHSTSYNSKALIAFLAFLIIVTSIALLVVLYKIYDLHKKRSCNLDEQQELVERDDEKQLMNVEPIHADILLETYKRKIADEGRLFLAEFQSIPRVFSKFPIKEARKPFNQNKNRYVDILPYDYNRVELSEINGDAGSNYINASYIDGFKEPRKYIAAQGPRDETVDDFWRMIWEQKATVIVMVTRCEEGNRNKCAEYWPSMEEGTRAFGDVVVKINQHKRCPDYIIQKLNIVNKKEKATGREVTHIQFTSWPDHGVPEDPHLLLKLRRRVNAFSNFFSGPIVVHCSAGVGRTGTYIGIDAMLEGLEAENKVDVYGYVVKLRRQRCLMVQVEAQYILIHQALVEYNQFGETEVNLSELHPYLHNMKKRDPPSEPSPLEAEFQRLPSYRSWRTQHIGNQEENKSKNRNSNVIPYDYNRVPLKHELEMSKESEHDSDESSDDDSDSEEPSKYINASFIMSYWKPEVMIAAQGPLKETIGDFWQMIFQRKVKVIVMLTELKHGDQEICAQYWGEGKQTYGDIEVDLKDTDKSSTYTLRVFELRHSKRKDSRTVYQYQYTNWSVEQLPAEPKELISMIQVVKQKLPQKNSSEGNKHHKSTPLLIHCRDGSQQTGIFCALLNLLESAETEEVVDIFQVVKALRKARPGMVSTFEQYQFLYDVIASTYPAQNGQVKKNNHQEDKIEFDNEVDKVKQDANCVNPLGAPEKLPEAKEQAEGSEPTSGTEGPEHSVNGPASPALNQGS
Listed next: entries and their corresponding IC50.
Quantity name: IC50 (µM)

C[C@@H]1CCC/C=C/C=C/[C@H](O)C[C@@H](O)C/C=C\C=C\[C@@H](O)C/C=C/C=C\C(=O)O1 [N13, Macrolactin A]	17.9
CC(C)CCCC(C)(O)c1ccc(C(=O)NC(CO)C(=O)O)cc1O (centres unmarked) [N7, Serine sydonate]	16

---

Tested on: nematode
Assay procedure: anti-nematode activity
pIC50: −log10 of the molar value.
Quantity name: pIC50

CC(C)C(O)CC[C@](C)(O)c1ccc(C(=O)O)cc1O (stereo partly drawn) [N3, (7S)-(−)-10-Hydroxysydonic acid]	4.30

---

Measured on: SHP1 (Homo sapiens, UniProt P29350)
Sequence (P29350 whole entry): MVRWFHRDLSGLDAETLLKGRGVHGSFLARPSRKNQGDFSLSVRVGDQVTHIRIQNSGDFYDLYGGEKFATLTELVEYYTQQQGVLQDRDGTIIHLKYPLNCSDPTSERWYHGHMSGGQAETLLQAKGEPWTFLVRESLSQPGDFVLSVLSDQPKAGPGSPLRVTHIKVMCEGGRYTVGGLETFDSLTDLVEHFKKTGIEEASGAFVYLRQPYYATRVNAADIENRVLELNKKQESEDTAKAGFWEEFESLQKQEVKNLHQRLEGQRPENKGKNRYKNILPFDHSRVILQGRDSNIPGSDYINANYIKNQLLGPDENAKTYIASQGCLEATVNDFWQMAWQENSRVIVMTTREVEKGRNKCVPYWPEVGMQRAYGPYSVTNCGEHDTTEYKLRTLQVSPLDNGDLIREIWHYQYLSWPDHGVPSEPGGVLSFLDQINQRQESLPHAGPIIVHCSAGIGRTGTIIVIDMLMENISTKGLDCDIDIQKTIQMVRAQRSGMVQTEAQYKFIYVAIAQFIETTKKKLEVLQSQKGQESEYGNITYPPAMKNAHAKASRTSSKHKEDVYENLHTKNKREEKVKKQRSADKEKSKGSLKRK
Quantity name: IC50 (µM)

CC(C)(O)CCCC(C)(O)c1ccc(C(=O)O)cc1O (stereo in doubt) [N4, (R)-(−)-Hydroxysydonic acid]	15.7
C[C@@H]1CCC/C=C/C=C/[C@H](O)C[C@@H](O)C/C=C\C=C\[C@@H](O)C/C=C/C=C\C(=O)O1 [N13, Macrolactin A]	14.6
CC(C)CCCC(C)(O)c1ccc(C(=O)NC(CO)C(=O)O)cc1O (centres unmarked) [N7, Serine sydonate]	11.7

---

Sequence of the target: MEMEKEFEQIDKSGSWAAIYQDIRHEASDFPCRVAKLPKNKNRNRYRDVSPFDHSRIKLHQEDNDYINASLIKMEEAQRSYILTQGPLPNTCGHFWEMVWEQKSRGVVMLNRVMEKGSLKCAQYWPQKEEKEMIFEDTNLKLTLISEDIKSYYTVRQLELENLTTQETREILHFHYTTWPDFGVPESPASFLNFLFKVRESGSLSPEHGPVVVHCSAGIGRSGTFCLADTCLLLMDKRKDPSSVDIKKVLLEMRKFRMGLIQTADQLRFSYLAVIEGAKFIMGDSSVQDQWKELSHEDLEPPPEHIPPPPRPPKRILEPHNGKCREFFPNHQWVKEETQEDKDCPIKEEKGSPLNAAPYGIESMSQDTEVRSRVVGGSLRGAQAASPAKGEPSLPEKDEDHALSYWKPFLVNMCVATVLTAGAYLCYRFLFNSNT
pIC50: −log10 of the molar value.
Quantity name: pIC50

CC(C)CCC[C@](C)(O)c1ccc(C(=O)O)cc1O	5.10
CC(C)CCCC(C)(O)c1ccc(C(=O)NC(CO)C(=O)O)cc1O (centres unmarked) [N7, Serine sydonate]	4.85
CC(C)C(O)CC[C@](C)(O)c1ccc(C(=O)O)cc1O (stereo partly drawn) [N3, (7S)-(−)-10-Hydroxysydonic acid]	4.80

---

Listed next: entries and their corresponding pIC50.
Measured on: CD45 (Homo sapiens)
Sequence (P08575 26-1306): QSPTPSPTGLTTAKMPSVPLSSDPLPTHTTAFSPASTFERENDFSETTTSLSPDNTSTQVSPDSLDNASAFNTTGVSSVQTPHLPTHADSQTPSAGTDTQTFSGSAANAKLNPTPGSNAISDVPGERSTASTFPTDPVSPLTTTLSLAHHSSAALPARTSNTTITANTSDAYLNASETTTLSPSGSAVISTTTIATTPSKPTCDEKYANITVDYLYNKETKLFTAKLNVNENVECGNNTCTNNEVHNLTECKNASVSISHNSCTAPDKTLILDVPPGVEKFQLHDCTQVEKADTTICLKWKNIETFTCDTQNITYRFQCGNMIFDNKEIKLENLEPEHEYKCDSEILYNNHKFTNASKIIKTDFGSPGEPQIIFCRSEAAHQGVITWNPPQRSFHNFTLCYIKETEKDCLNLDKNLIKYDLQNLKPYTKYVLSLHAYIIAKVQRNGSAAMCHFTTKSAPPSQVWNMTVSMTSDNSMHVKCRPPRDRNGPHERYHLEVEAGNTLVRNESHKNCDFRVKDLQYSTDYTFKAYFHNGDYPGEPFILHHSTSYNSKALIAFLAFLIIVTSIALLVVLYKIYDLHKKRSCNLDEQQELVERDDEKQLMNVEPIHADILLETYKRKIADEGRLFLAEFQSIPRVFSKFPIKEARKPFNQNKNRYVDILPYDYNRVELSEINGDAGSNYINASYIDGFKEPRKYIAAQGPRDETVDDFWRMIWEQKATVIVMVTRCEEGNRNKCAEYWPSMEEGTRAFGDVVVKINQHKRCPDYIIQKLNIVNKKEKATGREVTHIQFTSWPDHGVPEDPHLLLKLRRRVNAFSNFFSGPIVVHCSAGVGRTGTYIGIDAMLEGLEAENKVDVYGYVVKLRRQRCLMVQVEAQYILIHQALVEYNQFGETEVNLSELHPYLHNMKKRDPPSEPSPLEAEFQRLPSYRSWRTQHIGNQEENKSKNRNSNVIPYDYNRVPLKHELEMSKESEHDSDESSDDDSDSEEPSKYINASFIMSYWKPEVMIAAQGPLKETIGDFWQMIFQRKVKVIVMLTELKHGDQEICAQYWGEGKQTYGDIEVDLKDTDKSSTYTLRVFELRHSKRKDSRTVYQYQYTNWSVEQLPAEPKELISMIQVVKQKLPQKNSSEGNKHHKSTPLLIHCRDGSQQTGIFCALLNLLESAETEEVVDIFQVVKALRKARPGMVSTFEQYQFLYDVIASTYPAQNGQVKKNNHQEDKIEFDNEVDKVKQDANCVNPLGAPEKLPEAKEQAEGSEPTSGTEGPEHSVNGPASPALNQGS
pIC50: −log10 of the molar value.
Quantity name: pIC50

CC(C)C(O)CC[C@](C)(O)c1ccc(C(=O)O)cc1O (stereo partly drawn) [N3, (7S)-(−)-10-Hydroxysydonic acid]	< 4.70
CC(C)CCC[C@](C)(O)c1ccc(C(=O)O)cc1O [N2, Sydonic acid]	< 4.70
CC(C)(O)CCCC(C)(O)c1ccc(C(=O)O)cc1O (stereo in doubt) [N4, (R)-(−)-Hydroxysydonic acid]	< 4.70

// data source = paper PMC7881642
